- system.name: Cytochrome P450 (CYP) 2D6 enzyme (Homo sapiens, UniProt P10635)
- Construct: using pooled male and female human liver microsomes; from tissue; host or cells: pooled male and female human liver microsomes
- Sequence (P10635 whole entry): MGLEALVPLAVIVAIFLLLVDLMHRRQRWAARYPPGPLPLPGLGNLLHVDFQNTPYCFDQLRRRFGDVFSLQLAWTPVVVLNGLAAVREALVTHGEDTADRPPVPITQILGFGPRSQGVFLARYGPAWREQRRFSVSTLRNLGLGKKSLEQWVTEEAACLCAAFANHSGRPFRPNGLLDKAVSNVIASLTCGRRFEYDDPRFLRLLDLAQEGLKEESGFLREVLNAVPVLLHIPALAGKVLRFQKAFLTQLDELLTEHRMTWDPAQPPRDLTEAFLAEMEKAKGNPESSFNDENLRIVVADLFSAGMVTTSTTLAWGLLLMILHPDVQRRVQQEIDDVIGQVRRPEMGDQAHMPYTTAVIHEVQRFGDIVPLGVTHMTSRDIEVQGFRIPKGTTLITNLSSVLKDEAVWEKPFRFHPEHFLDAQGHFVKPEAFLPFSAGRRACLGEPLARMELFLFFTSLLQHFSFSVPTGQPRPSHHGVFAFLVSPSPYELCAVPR
- assay: Cytochrome P450 (CYP) 2D6 enzyme time dependent inhibition (TDI) assay
- Type: in vitro ADME
- run.parameters: t = 30 min pre-incubation, human liver microsomes; read-out: CYP2D6 inhibition, IC50 (μM) t = 30 min

- smiles.record: "Cc1ccnc2nc(-c3cncc(-c4ccc(F)c(C(F)(F)F)c4)c3N3CC[C@](C)(N)C3)[nH]c12"
  unit.of.measure: "µM"
  reported.relation: "="
  IC50: 5.1
- smiles.record: "Cc1cc(-c2cncc(-c3nc4c(F)cccc4[nH]3)c2N2CC[C@](C)(N)C2)ccn1"
  unit.of.measure: "µM"
  reported.relation: "="
  IC50: 9.7
- smiles.record: "COc1cc(-c2cncc(-c3nc4c(F)cccc4[nH]3)c2N2CC[C@](C)(N)C2)ccn1"
  unit.of.measure: "µM"
  reported.relation: "="
  IC50: 2.9
- smiles.record: "Cc1ccnc2[nH]c(-c3cncc(-c4ccc(F)c(C#N)c4)c3N3CC[C@](C)(N)C3)nc12"
  unit.of.measure: "µM"
  reported.relation: ">"
  IC50: 10

====

// pEC50 lookup, one value per entry
- system.name: human somatostatin receptor subtype 2 (Homo sapiens)
- Sequence (P30874 whole entry): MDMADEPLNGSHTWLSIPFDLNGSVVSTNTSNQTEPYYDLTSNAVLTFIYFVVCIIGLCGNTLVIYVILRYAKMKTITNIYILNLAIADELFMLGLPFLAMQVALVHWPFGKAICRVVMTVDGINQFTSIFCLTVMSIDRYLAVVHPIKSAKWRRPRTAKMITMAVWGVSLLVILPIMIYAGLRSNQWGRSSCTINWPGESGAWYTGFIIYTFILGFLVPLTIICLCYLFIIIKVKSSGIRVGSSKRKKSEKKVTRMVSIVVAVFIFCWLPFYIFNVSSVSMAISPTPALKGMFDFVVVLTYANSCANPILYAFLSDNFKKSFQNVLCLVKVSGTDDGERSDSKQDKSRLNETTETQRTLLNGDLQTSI
- assay: cAMP assay for SST2R (inhibition of cAMP via human SST2 receptor)
- run.parameters: Table B, read-out: SST2 potency
pEC50: −log10 of the molar value.

- compound: "Cc1cccc2nc(-c3cncc(-c4ccc(F)c(C(N)=O)c4)c3N3CCC(C)(N)C3)[nH]c12 (centres unmarked)"
  system.name: "human somatostatin receptor subtype 2 (Homo sapiens)"
  pEC50: "6.00 to 7.00"
- compound: "CC1(N)CCN(c2c(-c3ccc(F)c(C#N)c3)cncc2-c2nc3cccc(C#N)c3[nH]2)C1 (centres unmarked)"
  system.name: "human somatostatin receptor subtype 2 (Homo sapiens)"
  pEC50: "6.00 to 7.00"
- compound: "Cc1cc(F)cc(-c2cncc(-c3nc4cc(C)ccc4[nH]3)c2N2CC(CN)C2)c1"
  system.name: "human somatostatin receptor subtype 2 (Homo sapiens)"
  pEC50: "< 6.00"
- compound: "Cc1cc(F)cc(-c2cncc(-c3nc4cccc(Cl)c4[nH]3)c2N2CC(CN)C2)c1"
  system.name: "human somatostatin receptor subtype 2 (Homo sapiens)"
  pEC50: "6.00 to 7.00"
- compound: "N#Cc1cc(F)cc(-c2cncc(-c3nc4c(F)ccc(F)c4[nH]3)c2N2CC[C@H](N)C2)c1"
  system.name: "human somatostatin receptor subtype 2 (Homo sapiens)"
  pEC50: "6.00 to 7.00"
- compound: "Cc1cc(-c2cncc(-c3nc4nccc(C)c4[nH]3)c2N2CC[C@](C)(N)C2)ccc1F"
  system.name: "human somatostatin receptor subtype 2 (Homo sapiens)"
  pEC50: "6.00 to 7.00"
- compound: "Cc1cc(F)cc(-c2cncc(-c3nc4cccc(Cl)c4[nH]3)c2N2CCC(N)CC2)c1"
  system.name: "human somatostatin receptor subtype 2 (Homo sapiens)"
  pEC50: "> 8.00"
- compound: "Cc1cc(F)cc(-c2cncc(-c3nc4cc(F)ccc4[nH]3)c2N2CC(CN)C2)c1"
  system.name: "human somatostatin receptor subtype 2 (Homo sapiens)"
  pEC50: "< 6.00"
